Kindly state mortality at 400 ppm for each of the entries shown.
- System: Twospotted spider mites (Tetranychus urticae Koch)
- assay-remarks: Mite/insect screen, SM
- Assay type: in vivo
- protocol-conditions: Tetranychus urticae, foliar, percent mortality; rate 400 ppm, foliar spray on squash; read-out: SM RESULTS %
- Protocol: The compounds of Examples 1-295 were tested for miticidal and insecticidal activity in the following mite/insect screen. Each test compound was formulated by dissolving the compound in acetone/alcohol (50:50) mixture containing 23 g of "TOXIMUL R" (sulfonate/nonionic emulsifier blend) and 13 g of "TOXIMUL S" (sulfonate/nonionic emulsifier blend) per liter. […] After standard exposure periods, percent mortality was evaluated. […]
One number for each entry, in %.

[[record]]
compound = "Clc1ccc2c(NCCc3ccc4ccccc4c3)ccnc2c1"
reported_result = 0

[[record]]
compound = "CC(CNc1ccnc2cc(Cl)ccc12)c1ccc(Cl)cc1 (stereo not shown)"
reported_result = 80

[[record]]
compound = "Fc1ccc2c(OCCc3ccc(-c4ccccc4)cc3)ccnc2c1"
reported_result = 80

[[record]]
compound = "CC(C)c1ccc(CCOc2ccnc3c(F)cccc23)cc1"
reported_result = 0

[[record]]
compound = "CC(CCOc1ccnc2c(F)cccc12)CC(C)(C)C (stereo not shown)"
reported_result = 0

[[record]]
compound = "[O-][S+](CCc1ccccc1)c1ccnc2c(F)cccc12 (stereo not shown)"
reported_result = 0


For each listed entry, give its mortality at 400 ppm.
1. CC(Cc1ccccc1)Oc1ccnc2c(F)cccc12 (stereo not shown)
2. Fc1cccc2c(OCCc3ccc(Br)cc3)ccnc12
3. Fc1ccc(CCOc2ccnc3c(Cl)cccc23)cc1
4. Clc1ccccc1CCOc1ccnc2c(Cl)cccc12

Reply:
1: 0; 2: 0; 3: 0; 4: 0

Value source: patent EP0326331B1
